system: SK-MEL-5; experiment: NCI tumour cell line growth inhibition, 48 h
Activity calls are given as the source filed them. No stated cut-off is given here; in the data, active = GI50 up to about 1.1 µM and inactive = higher.
resultType: GI50

Some solved entries appear below for comparison.
C[Si](C)(C)/C=C/CCC(C=O)(CCCl)c1ccccc1 (centres undefined) :: 17.8 µM (inactive)
CC(=O)NC(=O)/N=C1\NCCC(=O)N1CCc1c[nH]c2ccccc12 :: > 100 µM (inactive)
O=[N+]([O-])/C=C/c1cn(CCCCCCCCCCCCn2cc(/C=C/[N+](=O)[O-])c3ccccc32)c2ccccc12 :: > 100 µM (inactive)
CSC1=C(C(=O)Nc2ccccc2)C(N)=NC1=O :: > 100 µM (inactive)
CSC1=C(c2ccc(Cl)cc2)SC(N2CCCCC2)N1c1ccc([N+](=O)[O-])cc1 (centres undefined) :: 14.6 µM (inactive)
CC1=Nc2ccccc2C1C(Cc1ccccc1N)c1c(C)[nH]c2ccccc12 (centres undefined) :: 14.6 µM (inactive)
COc1c2c3c4c(c(OC)c(=O)c5c(O)cc(OC)c(c6c(OC)cc(O)c(c1=O)c63)c54)C(C(C)O)C2C(C)O (centres undefined) :: 0.24 µM (active)
CCCc1nc2c(n1CC)C(=O)c1ccccc1C2=O :: 29.8 µM (inactive)
CCCCC(=O)NC1(c2cc3ccccc3s2)CCCCC1 :: > 100 µM (inactive)
O=C(OCc1ccccc1)c1nc2ccccc2n1S(=O)(=O)c1ccccc1 :: 80.4 µM (inactive)

What value of GI50 on SK-MEL-5 does COc1ccccc1NC(=O)C1=C(C)NC(C)=C(C(=O)Nc2ccccc2OC)C1c1ccc(C)cc1 have?
16.9 µM (inactive)

Please tell me: GI50 of O=C(Nc1ccc(F)cc1)C(=O)C(C1OC(=O)c2ccccc21)[N+](=O)[O-] (centres undefined) , system SK-MEL-5?
> 100 µM (inactive)

# value lookup — system SK-MEL-5, readout GI50, item O=C(O)c1nc2cc(C(F)(F)F)ccc2nc1Nc1ccc(F)cc1
16.2 µM (inactive)

Write down the reported GI50 of CCC1(CCSC(=N)N)C(=O)NC(=O)NC1=O , test system: SK-MEL-5.
> 100 µM (inactive)

Which measured GI50 belongs to N#Cc1cccc(C2C(=O)c3ccc(C(=O)c4ccc5c(c4)C(=O)N(c4ccc(Oc6ccc(N7C(=O)c8ccc(C(=O)c9ccc%10c(c9)C(=O)N(c9cccc(C#N)c9)C%10=O)cc8C7=O)cc6)cc4)C5=O)cc3C2=O)c1 (centres undefined) , tested on SK-MEL-5?
> 100 µM (inactive)
